Molecular target: MS2 coat protein, dlFG mutant (Escherichia phage MS2, UniProt P03612, del68-81insG)
Experiment: 4 mM Mg2+; L-tryptophan 2.4 mM; RNA-MaP array; 100 mM Tris-HCl pH 7.5, 80 mM KCl, 4 mM MgCl2, 0.1 mg/mL BSA, 1 mM DTT, 0.01 mg/mL yeast tRNA, 0.01% Tween-20; protein 1.5 nM to 3 uM; 37 C (Table S3)
Conditions: chain copies: 2; label: tethered by stalled RNA polymerase
pKd: −log10 of the molar value.
PROPERTY_MEASURED: pKd

BINDER	OBS_VALUE
Eterna 7616241 (Exclusion - Tryptophan A) (ssRNA) RNA: AAUGUAUGCCACAUGAGGAUCACCCAUGUGCGAGGACCGGUACGGCCGCCACUCGGUCGGUGGUUAAUGAAGAUAUACAAUAAUG	7.81

The origin of these recorded values is paper PMC9170038.
